// values below are reported IC50
experimental-protocol: Inhibition of FAM-Bim peptide binding to human Hsp70 NBD (1 to 383) measured after 30 mins by fluorescence polarization assay

N#CC1=C(C#N)c2ccc(N3CCSCC3)c3cccc(c23)C1=O :: > 20 µM
N#CC1=C(C#N)c2ccc(NC3CCCCC3)c3cccc(c23)C1=O :: > 20 µM

Then there is this compound:
[in] Fill in: IC50 of CC1(C)CCC(CN2CCN(c3ccc(C(=O)NS(=O)(=O)c4ccc(NCC5CCOCC5)c([N+](=O)[O-])c4)c(Oc4cnc5[nH]ccc5c4)c3)CC2)=C(c2ccc(Cl)cc2)C1 [VENETOCLAX] is ___
[out] > 20 µM
